- Test system: HCC-2998 colon
- assayInfo: NCI tumour cell line growth inhibition, 48 h
The reader will find reported GI50 values listed item by item below.

[
  {
    "molecule": "O=C1NC(=O)C(c2c[nH]c3ccccc23)=C1c1ccccc1",
    "GI50": "> 25 µM"
  },
  {
    "molecule": "CC/C(=N/N=C(N)N)c1ccc(NC(=O)Nc2ccc(/C(CC)=N/N=C(N)N)cc2)cc1",
    "GI50": "7.56 µM"
  },
  {
    "molecule": "COc1cc(NC(=O)c2ccccc2Nc2ccnc(C(F)(F)F)c2)cc(OC)c1OC",
    "GI50": "88.3 µM"
  },
  {
    "molecule": "COc1c2ccccc2c(O)c2c(=O)ccn(C)c12",
    "GI50": "3.68 µM"
  },
  {
    "molecule": "Cc1cc2c(cc1Cl)SC(C(=O)c1ccc(Cl)c(Cl)c1)NS2(=O)=O (stereo unspecified)",
    "GI50": "19.8 µM"
  },
  {
    "molecule": "COc1cc(Cn2c(SCC(=O)Nc3ccc(Cl)cc3)nc3ccccc3c2=O)cc(OC)c1OC",
    "GI50": "26.6 µM"
  },
  {
    "molecule": "COc1ccc2nc3cc(Cl)ccc3c(Nc3cc(C(C)C)c(O)cc3C)c2c1",
    "GI50": "2.22 µM"
  },
  {
    "molecule": "Fc1ccc(-c2c(-c3ccncc3)[nH]c3nccnc23)cc1",
    "GI50": "12 µM"
  },
  {
    "molecule": "FC(F)(F)c1ccc(NCc2nc3ccccc3[nH]2)cc1",
    "GI50": "23.8 µM"
  },
  {
    "molecule": "Cc1cc(N)cc(C)c1-c1c(Br)cc(N)cc1Br",
    "GI50": "3.42 µM"
  },
  {
    "molecule": "OCc1ccc(N(Cc2ccc(F)cc2)CC2CCC2)cc1Cl",
    "GI50": "11.5 µM"
  }
]

Origin of values: PubChem BioAssay (NCI)
